Tested on: HL-60(TB) leukemia
Experiment: NCI-60 one-dose screen, 48 h
Settings: 10 µM unless noted
Description: Growth inhibition of the HL-60(TB) human tumor cell line is measured as a screen for anti-cancer activity. Cells are grown in 96 well plates and exposed to the test compound for 48 hours. Compounds are tested at a single concentration, which is 10^-5 M for most compounds. The reported endpoint is percent growth (GI% or GIPRCNT), where numbers from 0 - 100% represent growth inhibition, and numbers from -100% - 0 represent cell death. For example, a value of 40 represents 60% growth inhibition. […]
This is part of a sample that, as a whole, favours compounds with a hit. Of some 83,000 tested, about 20% had one in any assay. Active and inactive are the calls of the source. Rule for the calls: active = growth percent below 10; inactive = the rest.
Outcomes: active, inactive

>>> class_name("O=C(Nc1ccc(N=Cc2ccccc2O)cc1)NC1C=c2ccccc2=CC1 (stereo not given)")
"inactive"
>>> class_name("CCNC(=O)Oc1ccc(/C(=C(/C)Cc2ccc(OC)cc2)c2ccc(OCCN3CCCCCC3)cc2)cc1")
"inactive"
>>> class_name("O=C(CSc1nc2ccc([N+](=O)[O-])cc2[nH]1)Nc1cccc([N+](=O)[O-])c1")
"inactive"
>>> class_name("COc1cccc(Nc2ncnn3ccc(CN4CC[C@@H](N)[C@H](O)C4)c23)c1")
"inactive"
>>> class_name("O=C(Nc1ccc(Cl)cc1)N1NC(c2ccc(Cl)cc2)C=C1c1ccccc1 (stereo not given)")
"inactive"
>>> class_name("CC(O)CCC(C)[N+](=O)[O-] (stereo not given)")
"inactive"
>>> class_name("c1ccc2c(NCCCN3CCN(CCCNc4c5ccccc5nc5ccccc45)CC3)c3ccccc3nc2c1")
"active"
>>> class_name("CN1CCN(C(=O)[C@]23CCC(C)(C)C[C@H]2C2=CC[C@@H]4[C@@]5(C)C/C(=C/c6ccncc6)C(=O)C(C)(C)[C@@H]5CC[C@@]4(C)[C@]2(C)CC3)CC1")
"active"
>>> class_name("OCCn1cccn1")
"inactive"
>>> class_name("O=[N+]([O-])c1cccc(/C=C/c2ccccn2)c1")
"inactive"

---

Tested on: NCI-H522 lung
Assay: NCI-60 one-dose screen, 48 h (100 = growth as untreated, 0 = no growth, -100 = all killed)
Conditions: 10 µM unless noted
About 83,000 compounds went through this panel and 20% of them were active in at least one assay; those are over-represented in the sample as a whole.
# key: entry, value: growth
property label: growth (%)

>>> measured_value("CN1C(=O)NC(=O)C(N=Nc2ccc(Cl)cc2)C1=O (centres undefined)")
81.3
>>> measured_value("CC(C)CCC[C@@H](C)[C@H]1CC[C@H]2[C@@H]3CC=C4C[C@@H](OC(=O)Cc5ccc(N(CCCl)CCCl)cc5)CC[C@]4(C)[C@H]3CC[C@]12C")
124
>>> measured_value("Cc1cc(C)nc(C)c1.[Cl][Hg][Cl]")
3.42
>>> measured_value("Oc1ccc(Br)cc1CN1CCN(Cc2ccc(Cl)cc2)CC1")
-84.4
>>> measured_value("CC(=O)O[C@@H]1C2=C(C)C3(CC3)[C@@](C)(O)C(=O)C2=C[C@@]1(C)CO")
-36.6
>>> measured_value("O=C1c2ccccc2C(=O)N1[N+](=O)[O-]")
88.7
>>> measured_value("Nc1c(Br)cc([N+](=O)[O-])cc1[N+](=O)[O-]")
105
>>> measured_value("CC(=O)C1CCC2C3CC=C4CC(OC(=O)Cc5ccc(N(CCCl)CCCl)cc5)CCC4(C)C3CCC12C (centres undefined)")
80
>>> measured_value("O=[N+]([O-])c1ccc(F)c([N+](=O)[O-])c1F")
95.3
>>> measured_value("C[C@]12CC[C@@H]3c4ccc(OC(=O)Cc5ccc(N(CCCl)CCCl)cc5)cc4CC[C@H]3[C@@H]1CC[C@@H]2OC(=O)Cc1ccc(N(CCCl)CCCl)cc1")
134
>>> measured_value("COc1ccc(/C=C(/C(=O)N2CCCC2)c2cc(OC)c(OC)c(OC)c2)cc1N")
3.14
>>> measured_value("CCCCCN(CCCCC)CC(O)c1ccc(C)c(Cl)c1 (centres undefined)")
83.5
>>> measured_value("CCC1([N+](=O)[O-])COP(=O)(NCc2cccnc2)OC1 (centres undefined)")
109
>>> measured_value("Cc1ccc(C[As+](c2ccccc2)(c2ccccc2)c2ccccc2)cc1")
-22
>>> measured_value("ClCCN(CCCl)c1ccc(C=NCCc2c[nH]c3ccccc23)cc1")
92.4
>>> measured_value("CC1(C)CC2(CC(C)(C)c3cc(O)c(O)cc32)c2cc(O)c(O)cc21")
37.4
>>> measured_value("CCCCCCCC(=O)OCC/C=C/C1OC1C1OC(=O)/C=C\\C=C\\c2nc(oc2C)/C=C(/C)CCC2OC2C1OC(=O)NC(C)=O (centres undefined)")
-80.3
>>> measured_value("CCCCCCCCCCOc1ccc(C(=O)Oc2ccc(CSP3(=O)OCC4OC(n5ccc(=O)[nH]c5=O)C(F)C4OP(=O)(O)OCC4OC(n5cnc6c(N)ncnc65)C(F)C4O3)cc2)cc1 (centres undefined)")
71.1
>>> measured_value("NS(=O)(=O)c1nc[nH]c1[N+](=O)[O-]")
109

---

Test system: SF-268 CNS
Experiment: NCI-60 one-dose screen, 48 h
Details: 10 µM unless noted
This is part of a sample that, as a whole, favours compounds with a hit. Of some 83,000 tested, about 20% had one in any assay. The source made the active and inactive calls. The calls were made as follows: active = growth percent below 10; inactive = the rest.
Outcomes: active, inactive

>>> class_name("CCCCn1cc(C(=O)/C(C#N)=C/c2cc3ccccc3nc2Cl)c2cc(OC)ccc21")
"inactive"
>>> class_name("O=CN1N=C(c2ccccc2)CC1c1sc(N(CCCl)CCCl)nc1Cl (configuration not stated)")
"inactive"
>>> class_name("N#CC1=C(N)Oc2cc3c(cc2C1c1cccs1)OCO3 (configuration not stated)")
"inactive"
>>> class_name("O=C1NC2(CCNCC2)Nc2ccccc21")
"inactive"
>>> class_name("CC1(C)N=C(N)N=C(N)N1c1ccc(OCCCCOc2ccc(S(=O)(=O)F)cc2)c(Cl)c1")
"inactive"
>>> class_name("NC(Cc1ccc(O)cc1)C(=O)N/N=C/c1ccc(N(CCCl)CCCl)cc1 (configuration not stated)")
"inactive"
>>> class_name("ClCCN(CCCl)C(c1ccccc1)c1ccc(Cl)cc1 (configuration not stated)")
"inactive"
>>> class_name("CN1CC2CCC(C1)C2=O")
"inactive"
>>> class_name("CC(C)(O)/C=C/C(=O)[C@](C)(O)[C@H]1[C@H](O)C[C@@]2(C)[C@@H]3CC=C4[C@@H](C=C(O)C(=O)C4(C)C)[C@]3(C)C(=O)C[C@]12C")
"active"
>>> class_name("CC1(CF)NC(=O)NC1=O (configuration not stated)")
"inactive"
>>> class_name("Cc1cc(CCl)c(C)cc1CCl")
"inactive"
>>> class_name("C=CC(=O)NC(O)C(Cl)(Cl)Cl (configuration not stated)")
"inactive"
>>> class_name("CCOc1cc(/C=N\\Nc2nnc(C)n2N)c(C)cc1N(CCCl)CCCl")
"inactive"
>>> class_name("O=C1NC(=O)C(=Cc2cn(Cc3ccccc3)c3ccccc23)C(=O)N1")
"inactive"
>>> class_name("CN1C(=O)NC(=O)C(N=Nc2ccc(Cl)cc2)C1=O (configuration not stated)")
"inactive"
>>> class_name("CCOC(=O)c1cnc(SCc2ccc(Cl)c(Cl)c2)nc1N1CC1")
"inactive"
>>> class_name("CC[C@@]1(C2O[C@@H](C3O[C@@](O)(CC)[C@H](C)C[C@@H]3C)C[C@@H]2C)CC[C@H]([C@]2(C)CCC3(C[C@H](O)[C@@H](C)[C@@H]([C@H](C)[C@@H](OC)[C@H](C)C(=O)O)O3)O2)O1 (some centres not stated)")
"inactive"
>>> class_name("CO[C@@H](c1ccccc1Cl)[C@H](C)OC(N)=O")
"inactive"
>>> class_name("O=[N+]([O-])c1cccc([As]=[As]c2cccc([N+](=O)[O-])c2)c1 (configuration not stated)")
"active"
>>> class_name("C[CH2][Pb]([CH2]C)([CH2]C)[O]C(=O)COC")
"active"
>>> class_name("NC(Cc1ccc2c(c1)OCO2)c1ccc2c(c1)OCO2 (configuration not stated)")
"inactive"
>>> class_name("O=C(/C=C/c1ccccc1)N[C@@H](CO)Cc1cnc[nH]1")
"inactive"

---

System: HL-60(TB) leukemia
Experiment: NCI-60 one-dose screen, 48 h
Details: 10 µM unless noted
The panel holds about 83,000 compounds, 20% with a hit somewhere; the sample as a whole holds those more often. Activity calls are given as the source filed them. Rule for the calls: active = growth percent below 10; inactive = the rest.
Classes used: active, inactive

>>> class_name("CCn1cc(C(=O)O)c(=O)c2cnc(N3CCCC3)nc21")
"inactive"
>>> class_name("Nc1nc(N)c(-c2ccc(Cl)c(Cl)c2)c(CBr)n1")
"inactive"
>>> class_name("COc1cc(NC(=O)COc2cc(C)nc3ccc(OC)cc23)cc(OC)c1")
"inactive"
>>> class_name("N/C(=N\\C(N)=N\\c1nc2ccccc2s1)c1ccnc(Br)c1")
"active"
>>> class_name("O=C(NCc1ccccc1)C(Cl)Cl")
"inactive"
>>> class_name("CC(CN1CCN(CCOCCO)CC1)CN1c2ccccc2Sc2ccc(Cl)cc21 (configuration not stated)")
"inactive"
>>> class_name("O=C(N/N=C/c1ccc(O)cc1O)c1ccc(Nc2ccnc(C(F)(F)F)c2)cc1")
"inactive"
>>> class_name("Cc1ccc(C)n1-c1ccsc1C(=O)NNC(=O)C(Cl)Cl")
"inactive"
>>> class_name("COc1cc(/C=N/Nc2ncnc3c2c(C)nn3-c2ccc(F)cc2)ccc1O")
"inactive"
>>> class_name("COc1ccc(C2=NN(C(=O)COc3ccc(Cl)cc3)C(O)(c3cc(F)c(Cl)cc3Cl)C2)cc1OC (configuration not stated)")
"active"
>>> class_name("CCn1c2ccccc2c2ccc(C(C)=O)cc21")
"inactive"
>>> class_name("CC(=O)Nc1nccs1")
"inactive"
